Catalogue of Efficacy readings, one per entry.
# Tested on: Ishikawa
# method: Increase in estrogen stimulation in human Ishikawa cells by alkaline phosphatase quantitation at 1 uM relative to control
# Assay type: functional
readout: Efficacy (%)

[[record]]
compound = "Oc1ccc2c(Oc3ccc(OCCN4CCCCC4)cc3)c(-c3ccc(F)cc3)ccc2c1"
measure_unit = "%"
experimental_value = 21

[[record]]
compound = "CS(=O)(=O)C1CC=C(c2ccc3cc(O)ccc3c2Oc2ccc(OCCN3CCCCC3)cc2)CC1 (stereo unspecified)"
measure_unit = "%"
experimental_value = 24

[[record]]
compound = "CN(C)S(=O)(=O)c1ccc(-c2ccc3cc(O)ccc3c2Oc2ccc(OCCN3CCCCC3)cc2)cc1"
measure_unit = "%"
experimental_value = 27

[[record]]
compound = "N#Cc1cccc(-c2ccc3cc(O)ccc3c2Oc2ccc(OCCN3CCCCC3)cc2)c1"
measure_unit = "%"
experimental_value = 23

[[record]]
compound = "Oc1ccc2c(Oc3ccc(OCCN4CCCCC4)cc3)c(-c3ccc(F)c(F)c3)ccc2c1"
measure_unit = "%"
experimental_value = 13

[[record]]
compound = "CC(C)S(=O)(=O)c1ccc(-c2ccc3cc(O)ccc3c2Oc2ccc(OCCN3CCCCC3)cc2)cc1"
measure_unit = "%"
experimental_value = 11

[[record]]
compound = "O=S1(=O)CC=C(c2ccc3cc(O)ccc3c2Oc2ccc(OCCN3CCCCC3)cc2)CC1"
measure_unit = "%"
experimental_value = 19

[[record]]
compound = "CCS(=O)(=O)c1ccc(-c2sc3cc(O)ccc3c2Oc2ccc(OCCN3CCCCC3)cc2)cc1"
measure_unit = "%"
experimental_value = 16

[[record]]
compound = "CCS(=O)(=O)c1ccc(-c2ccc3cc(O)ccc3c2Oc2ccc(OCCN3CCCCC3)cc2)cc1"
measure_unit = "%"
experimental_value = 19

[[record]]
compound = "CC(C)c1ccc(-c2sc3cc(O)ccc3c2Oc2ccc(OCCN3CCCCC3)cc2)cc1"
measure_unit = "%"
experimental_value = 29

[[record]]
compound = "CS(=O)(=O)c1ccc(-c2sc3cc(O)ccc3c2Oc2ccc(OCCN3CCCCC3)cc2)cc1"
measure_unit = "%"
experimental_value = 24

[[record]]
compound = "Oc1cccc(-c2ccc3cc(O)ccc3c2Oc2ccc(OCCN3CCCCC3)cc2)c1"
measure_unit = "%"
experimental_value = 26

[[record]]
compound = "CN(C)C(=O)c1ccc(-c2ccc3cc(O)ccc3c2Oc2ccc(OCCN3CCCCC3)cc2)cc1"
measure_unit = "%"
experimental_value = 25

[[record]]
compound = "O=S1(=O)CCC(c2ccc3cc(O)ccc3c2Oc2ccc(OCCN3CCCCC3)cc2)CC1"
measure_unit = "%"
experimental_value = 27

[[record]]
compound = "Oc1ccc2c(Oc3ccc(OCCN4CCCCC4)cc3)c(-c3cccc(F)c3)ccc2c1"
measure_unit = "%"
experimental_value = 15

[[record]]
compound = "Oc1ccc(-c2ccc3cc(O)ccc3c2Oc2ccc(OCCN3CCCCC3)cc2)cc1"
measure_unit = "%"
experimental_value = 13

